Molecular target: Cathepsin D (Cat D) (Homo sapiens)
Construct: Recombinant Cat D was expressed in CHO cells; made in house; host or cells: CHO cells
Sequence (P07339 65-412, species assumed): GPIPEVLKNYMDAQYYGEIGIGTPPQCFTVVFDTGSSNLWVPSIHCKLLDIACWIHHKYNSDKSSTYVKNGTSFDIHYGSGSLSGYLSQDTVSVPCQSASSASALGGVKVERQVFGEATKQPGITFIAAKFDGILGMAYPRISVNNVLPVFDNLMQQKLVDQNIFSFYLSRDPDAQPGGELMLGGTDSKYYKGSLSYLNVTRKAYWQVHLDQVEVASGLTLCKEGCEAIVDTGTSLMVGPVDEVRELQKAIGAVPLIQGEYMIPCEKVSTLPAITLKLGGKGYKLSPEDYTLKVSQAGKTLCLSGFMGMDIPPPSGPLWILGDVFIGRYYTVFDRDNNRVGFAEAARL
Assay: In vitro enzymatic Cathepsin D (Cat D) FRET assay
Type: biochemical
Settings: read-out: CatD IC50
pIC50: −log10 of the molar value.
readoutLabel: pIC50

Guide cases for pIC50, answers given:
Prompt line: What measured pIC50 is associated with CC1(C)C(N)=N[C@](C)(c2cc(NC(=O)N3CC=CCC3)ccc2F)CS1(=O)=O on Cathepsin D (Cat D) (Homo sapiens)?
Response line: < 4.83

Prompt line: What measured pIC50 is associated with Cc1cnc(C(=O)Nc2ccc(F)c([C@]3(C)CS(=O)(=O)C(C)(C)C(N)=N3)c2)c(C)n1 on Cathepsin D (Cat D) (Homo sapiens)?
Response line: < 3.40

New cases:
Prompt line: What measured pIC50 is associated with CC1(C)C(N)=N[C@](C)(c2cc(Nc3ncc(F)c4cc(C#N)cnc34)ccc2F)CS1(=O)=O on Cathepsin D (Cat D) (Homo sapiens)?
Response line: < 4.36

Prompt line: What measured pIC50 is associated with COc1cc(Cl)cnc1C(=O)Nc1ccc(F)c([C@]2(CF)CS(=O)(=O)C(C)(C)C(N)=N2)c1 on Cathepsin D (Cat D) (Homo sapiens)?
Response line: < 3.40

Prompt line: What measured pIC50 is associated with CC1(C)C(N)=N[C@](C)(c2cc(NC(=O)c3ncc(Cl)cc3F)ccc2F)CS1(=O)=O on Cathepsin D (Cat D) (Homo sapiens)?
Response line: < 3.40

Prompt line: What measured pIC50 is associated with CC1(C)C(N)=N[C@](C)(c2cc(Nc3nccc4nc(C(F)(F)F)cnc34)ccc2F)C(F)S1(=O)=O (stereo partly drawn) on Cathepsin D (Cat D) (Homo sapiens)?
Response line: < 4.35

From: patent US20140107109A1
